test system: P. aeruginosa LMG6395T; test: MIC, broth micro-dilution, primary panel; type: cell-based, Pseudomonas aeruginosa; details: Pseudomonas aeruginosa, LMG6395T, WT
Starred links: 1 amine or outer side, 2 acyl side, 3 side chain; linkers in the order of their positions; H or OH if unused. Positions of bridges follow the written chain, without caps; N, C: chain ends. Non-standard residues stand in square brackets, D forms with d. Residues, ends and D or L forms follow the SMILES beside them. X6 = CC(C)CCCCC=CC[C@H](CC(=O)[*:1])O[*:2]; X5 = CC(C)CCCCCCC[C@H](CC(=O)[*:1])O[*:2]; X7 = CCCCCCC=CC[C@H](CC(=O)[*:1])O[*:2]; Val(3-OH) = CC(C)(O)[C@H](N)C(=O)O; X1 = C/C=C(/N[*:1])C(=O)[*:2]; Dab = NCC[C@H](N)C(=O)O; Dap = NC[C@H](N)C(=O)O
Provide the reported MIC of each item.
Give bare numbers, in µg/mL.

Illustrative cases are given below, each with its answer.
| molecule | MIC / µg/mL |
| --- | --- |
| C/C=C1/NC(=O)[C@H](CCN)NC(=O)[C@H](CC(C)C)NC(=O)[C@H](CN)NC(=O)C[C@@H](CCCCCCCC(C)C)OC(=O)[C@H](CC(=O)O)NC(=O)[C@H](C(C)(C)O)NC(=O)[C@@H](Cc2ccccc2)NC(=O)[C@H](CN)NC(=O)[C@H]([C@@H](C)O)NC1=O [Compound 6, Isopedopeptin F] ([Dap]L[Dab][X1]T[Dap][dF][Val(3-OH)]D; linker N-C via X5) | 32 |
| C/C=C1/NC(=O)[C@H](CCN)NC(=O)[C@H](CC(C)C)NC(=O)[C@H](CN)NC(=O)C[C@@H](CC=CCCCCC(C)C)OC(=O)[C@H](CC(=O)O)NC(=O)[C@H](C(C)C)NC(=O)[C@@H](Cc2ccccc2)NC(=O)[C@H](CN)NC(=O)[C@H]([C@@H](C)O)NC1=O [Compound 8, Isopedopeptin H] ([Dap]L[Dab][X1]T[Dap][dF]VD; linker N-C via X6) | 16 |

Now for a further molecule.
Form field: reported MIC of C/C=C1/NC(=O)[C@H](CCN)NC(=O)[C@H](CC(C)C)NC(=O)[C@H](CN)NC(=O)C[C@@H](CC=CCCCCCC)OC(=O)[C@H](CC(=O)O)NC(=O)[C@H](C(C)(C)O)NC(=O)[C@@H](Cc2ccccc2)NC(=O)[C@H](CN)NC(=O)[C@H]([C@@H](C)O)NC1=O [Compound 3, isopedopeptin C] ([Dap]L[Dab][X1]T[Dap][dF][Val(3-OH)]D; linker N-C via X7)
32

----------
Starred links: 1 amine or outer side, 2 acyl side, 3 side chain; linkers in the order of their positions; H or OH if unused. Positions of bridges follow the written chain, without caps; N, C: chain ends. Non-standard residues stand in square brackets, D forms with d. Residues, ends and D or L forms follow the SMILES beside them. X4 = CC(C)CCC=CCCC[C@H](CC(=O)[*:1])O[*:2]; X6 = CC(C)CCCCC=CC[C@H](CC(=O)[*:1])O[*:2]; X5 = CC(C)CCCCCCC[C@H](CC(=O)[*:1])O[*:2]; X3 = CC(C)CCCCC[C@H](CC(=O)[*:1])O[*:2]; X7 = CCCCCCC=CC[C@H](CC(=O)[*:1])O[*:2]; X2 = CCCCCCC[C@H](CC(=O)[*:1])O[*:2]; Val(3-OH) = CC(C)(O)[C@H](N)C(=O)O; X1 = C/C=C(/N[*:1])C(=O)[*:2]; Dab = NCC[C@H](N)C(=O)O; Dap = NC[C@H](N)C(=O)O
// each record: one item and its MIC for B. cereus CCUG7414T

Example compounds with recorded MIC:
| compound | MIC |
| --- | --- |
| C/C=C1/NC(=O)[C@H](CCN)NC(=O)[C@H](CC(C)C)NC(=O)[C@H](CN)NC(=O)C[C@@H](CCCCCC(C)C)OC(=O)[C@H](CC(=O)O)NC(=O)[C@H](C(C)(C)O)NC(=O)[C@@H](Cc2ccccc2)NC(=O)[C@H](CN)NC(=O)[C@H]([C@@H](C)O)NC1=O [Compound 1] ([Dap]L[Dab][X1]T[Dap][dF][Val(3-OH)]D; linker N-C via X3) | > 32 µg/mL |
| C/C=C1/NC(=O)[C@H](CCN)NC(=O)[C@H](CC(C)C)NC(=O)[C@H](CN)NC(=O)C[C@@H](CC=CCCCCC(C)C)OC(=O)[C@H](CC(=O)O)NC(=O)[C@H](C(C)C)NC(=O)[C@@H](Cc2ccccc2)NC(=O)[C@H](CN)NC(=O)[C@H]([C@@H](C)O)NC1=O [Compound 8, Isopedopeptin H] ([Dap]L[Dab][X1]T[Dap][dF]VD; linker N-C via X6) | 32 µg/mL |

# per-item lookup of MIC; items listed below
1. C/C=C1/NC(=O)[C@H](CCN)NC(=O)[C@H](CC(C)C)NC(=O)[C@H](CN)NC(=O)C[C@@H](CCCCCCCC(C)C)OC(=O)[C@H](CC(=O)O)NC(=O)[C@H](C(C)(C)O)NC(=O)[C@@H](Cc2ccccc2)NC(=O)[C@H](CN)NC(=O)[C@H]([C@@H](C)O)NC1=O [Compound 6, Isopedopeptin F] ([Dap]L[Dab][X1]T[Dap][dF][Val(3-OH)]D; linker N-C via X5)
2. C/C=C1/NC(=O)[C@H](CCN)NC(=O)[C@H](CC(C)C)NC(=O)[C@H](CN)NC(=O)C[C@@H](CCCCCCC)OC(=O)[C@H](CC(=O)O)NC(=O)[C@H](C(C)C)NC(=O)[C@@H](Cc2ccccc2)NC(=O)[C@H](CN)NC(=O)[C@H]([C@@H](C)O)NC1=O [Compound 4, isopedopeptin D] ([Dap]L[Dab][X1]T[Dap][dF]VD; linker N-C via X2)
3. C/C=C1/NC(=O)[C@H](CCN)NC(=O)[C@H](CC(C)C)NC(=O)[C@H](CN)NC(=O)C[C@@H](CCCCCC(C)C)OC(=O)[C@H](CC(=O)O)NC(=O)[C@H](C(C)C)NC(=O)[C@@H](Cc2ccccc2)NC(=O)[C@H](CN)NC(=O)[C@H]([C@@H](C)O)NC1=O [Compound 5, Isopedopeptin E] ([Dap]L[Dab][X1]T[Dap][dF]VD; linker N-C via X3)
4. C/C=C1/NC(=O)[C@H](CCN)NC(=O)[C@H](CC(C)C)NC(=O)[C@H](CN)NC(=O)C[C@@H](CCCC=CCCC(C)C)OC(=O)[C@H](CC(=O)O)NC(=O)[C@H](C(C)C)NC(=O)[C@@H](Cc2ccccc2)NC(=O)[C@H](CN)NC(=O)[C@H]([C@@H](C)O)NC1=O [Compound 7, Isopedopeptin G] ([Dap]L[Dab][X1]T[Dap][dF]VD; linker N-C via X4)
5. C/C=C1/NC(=O)[C@H](CCN)NC(=O)[C@H](CC(C)C)NC(=O)[C@H](CN)NC(=O)C[C@@H](CC=CCCCCCC)OC(=O)[C@H](CC(=O)O)NC(=O)[C@H](C(C)(C)O)NC(=O)[C@@H](Cc2ccccc2)NC(=O)[C@H](CN)NC(=O)[C@H]([C@@H](C)O)NC1=O [Compound 3, isopedopeptin C] ([Dap]L[Dab][X1]T[Dap][dF][Val(3-OH)]D; linker N-C via X7)

32 µg/mL
32 µg/mL
16 µg/mL
16 µg/mL
32 µg/mL

----------
assay: in vitro; type: cell-based; conditions: human, pH 7.4, Hemolysis (%)
Starred links: 1 amine or outer side, 2 acyl side, 3 side chain; linkers in the order of their positions; H or OH if unused. Positions of bridges follow the written chain, without caps; N, C: chain ends. Non-standard residues stand in square brackets, D forms with d. Residues, ends and D or L forms follow the SMILES beside them. X4 = CC(C)CCC=CCCC[C@H](CC(=O)[*:1])O[*:2]; X6 = CC(C)CCCCC=CC[C@H](CC(=O)[*:1])O[*:2]; X5 = CC(C)CCCCCCC[C@H](CC(=O)[*:1])O[*:2]; X3 = CC(C)CCCCC[C@H](CC(=O)[*:1])O[*:2]; X7 = CCCCCCC=CC[C@H](CC(=O)[*:1])O[*:2]; X2 = CCCCCCC[C@H](CC(=O)[*:1])O[*:2]; Val(3-OH) = CC(C)(O)[C@H](N)C(=O)O; X1 = C/C=C(/N[*:1])C(=O)[*:2]; Dab = NCC[C@H](N)C(=O)O; Dap = NC[C@H](N)C(=O)O
With a cut-off of 10%, any hemolysis at 45 min, 100 µM strictly below it is called TRUE; any hemolysis at 45 min, 100 µM meeting it or above is called FALSE.

Solved entries:
| compound | answer_label |
| --- | --- |
| C/C=C1/NC(=O)[C@H](CCN)NC(=O)[C@H](CC(C)C)NC(=O)[C@H](CN)NC(=O)C[C@@H](CC=CCCCCCC)OC(=O)[C@H](CC(=O)O)NC(=O)[C@H](C(C)(C)O)NC(=O)[C@@H](Cc2ccccc2)NC(=O)[C@H](CN)NC(=O)[C@H]([C@@H](C)O)NC1=O [Compound 3, isopedopeptin C] ([Dap]L[Dab][X1]T[Dap][dF][Val(3-OH)]D; linker N-C via X7) | TRUE |
| C/C=C1/NC(=O)[C@H](CCN)NC(=O)[C@H](CC(C)C)NC(=O)[C@H](CN)NC(=O)C[C@@H](CC=CCCCCC(C)C)OC(=O)[C@H](CC(=O)O)NC(=O)[C@H](C(C)C)NC(=O)[C@@H](Cc2ccccc2)NC(=O)[C@H](CN)NC(=O)[C@H]([C@@H](C)O)NC1=O [Compound 8, Isopedopeptin H] ([Dap]L[Dab][X1]T[Dap][dF]VD; linker N-C via X6) | FALSE |
| C/C=C1/NC(=O)[C@H](CCN)NC(=O)[C@H](CC(C)C)NC(=O)[C@H](CN)NC(=O)C[C@@H](CCCCCCCC(C)C)OC(=O)[C@H](CC(=O)O)NC(=O)[C@H](C(C)(C)O)NC(=O)[C@@H](Cc2ccccc2)NC(=O)[C@H](CN)NC(=O)[C@H]([C@@H](C)O)NC1=O [Compound 6, Isopedopeptin F] ([Dap]L[Dab][X1]T[Dap][dF][Val(3-OH)]D; linker N-C via X5) | FALSE |

Determine if C/C=C1/NC(=O)[C@H](CCN)NC(=O)[C@H](CC(C)C)NC(=O)[C@H](CN)NC(=O)C[C@@H](CCCCCC(C)C)OC(=O)[C@H](CC(=O)O)NC(=O)[C@H](C(C)(C)O)NC(=O)[C@@H](Cc2ccccc2)NC(=O)[C@H](CN)NC(=O)[C@H]([C@@H](C)O)NC1=O [Compound 1] ([Dap]L[Dab][X1]T[Dap][dF][Val(3-OH)]D; linker N-C via X3) shows hemolysis at 45 min, 100 µM strictly lower than 10%.
TRUE

// next record C/C=C1/NC(=O)[C@H](CCN)NC(=O)[C@H](CC(C)C)NC(=O)[C@H](CN)NC(=O)C[C@@H](CCCCCCC)OC(=O)[C@H](CC(=O)O)NC(=O)[C@H](C(C)C)NC(=O)[C@@H](Cc2ccccc2)NC(=O)[C@H](CN)NC(=O)[C@H]([C@@H](C)O)NC1=O [Compound 4, isopedopeptin D] ([Dap]L[Dab][X1]T[Dap][dF]VD; linker N-C via X2)
TRUE

And the next one, C/C=C1/NC(=O)[C@H](CCN)NC(=O)[C@H](CC(C)C)NC(=O)[C@H](CN)NC(=O)C[C@@H](CCCCCCC)OC(=O)[C@H](CC(=O)O)NC(=O)[C@H](C(C)(C)O)NC(=O)[C@@H](Cc2ccccc2)NC(=O)[C@H](CN)NC(=O)[C@H]([C@@H](C)O)NC1=O [Compound 2, isopedopeptin B] ([Dap]L[Dab][X1]T[Dap][dF][Val(3-OH)]D; linker N-C via X2) ?
TRUE

For C/C=C1/NC(=O)[C@H](CCN)NC(=O)[C@H](CC(C)C)NC(=O)[C@H](CN)NC(=O)C[C@@H](CCCC=CCCC(C)C)OC(=O)[C@H](CC(=O)O)NC(=O)[C@H](C(C)C)NC(=O)[C@@H](Cc2ccccc2)NC(=O)[C@H](CN)NC(=O)[C@H]([C@@H](C)O)NC1=O [Compound 7, Isopedopeptin G] ([Dap]L[Dab][X1]T[Dap][dF]VD; linker N-C via X4) then?
FALSE
